# PROCEDURE TEXT: Rate of formation of aziridine under physiological conditions
# Type: ADME
READOUT TYPE: kik0/Ki

| MOLECULE | RESULT |
| --- | --- |
| NC(CCCC(N)(CF)C(=O)O)C(=O)O (configuration not stated) | 0.0000145 uM-1 min**-2 |
| NC(CCCC(N)(CCl)C(=O)O)C(=O)O (configuration not stated) | 0.002 µM-1 min··-2 |

Origin of values: ChEMBL document CHEMBL1124870
